Just for reference, patent US20250215029A1 is where these values come from.

Target: pY705-STAT3 in PBMC (Homo sapiens)
Construct: Cryopreserved Peripheral Blood Mononuclear Cells (PBMC) are from AllCells; host or cells: cryopreserved PBMC
Sequence (P40763 whole entry): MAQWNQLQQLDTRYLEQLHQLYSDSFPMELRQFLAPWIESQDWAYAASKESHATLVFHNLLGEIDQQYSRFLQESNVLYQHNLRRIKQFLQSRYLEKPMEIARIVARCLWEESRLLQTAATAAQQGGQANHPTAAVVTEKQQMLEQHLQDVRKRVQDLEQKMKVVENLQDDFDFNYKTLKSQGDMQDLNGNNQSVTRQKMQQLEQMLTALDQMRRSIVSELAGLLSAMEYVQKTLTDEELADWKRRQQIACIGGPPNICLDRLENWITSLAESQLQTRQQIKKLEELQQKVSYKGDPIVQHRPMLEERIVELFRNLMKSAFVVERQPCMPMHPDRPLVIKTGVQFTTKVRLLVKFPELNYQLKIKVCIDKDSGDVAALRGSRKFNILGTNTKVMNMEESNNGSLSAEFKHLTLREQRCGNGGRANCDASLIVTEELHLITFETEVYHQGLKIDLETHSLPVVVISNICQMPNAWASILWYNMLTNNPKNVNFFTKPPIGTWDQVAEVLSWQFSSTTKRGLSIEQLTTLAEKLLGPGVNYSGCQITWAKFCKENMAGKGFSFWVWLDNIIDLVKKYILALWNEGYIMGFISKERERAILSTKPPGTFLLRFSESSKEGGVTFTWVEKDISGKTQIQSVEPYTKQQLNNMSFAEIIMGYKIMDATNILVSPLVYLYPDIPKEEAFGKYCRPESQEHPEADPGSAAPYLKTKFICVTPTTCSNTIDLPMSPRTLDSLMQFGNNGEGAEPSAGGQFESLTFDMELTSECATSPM
Assay: MSD-pSTAT-PBMC Assay (pSTAT3, IL-6 stimulated)
Type: cell-based
Conditions: PBMC, compound 3 hrs, then 10 ng/mL IL-6 for 10 min; Table 115; read-out: STAT3
pIC50: −log10 of the molar value.
result_type: pIC50

{"compound": "CCCOC(=O)[C@H](C)NP(=O)(Oc1ccccc1)C(F)c1ccc2sc(C(=O)N[C@H]3CCCC[C@H]4CC[C@@H](C(=O)N5C[C@@H](c6cccnc6)CC56CC6)N4C3=O)cc2c1 (stereo in doubt)", "pIC50": "< 5.52"}
{"compound": "CCCOC(=O)[C@H](C)NP(=O)(Oc1ccccc1)C(F)c1ccc2sc(C(=O)N[C@H]3CCC[C@H]4CC[C@@H](C(=O)N5CC(c6cc(F)ccc6F)C5)N4C3=O)cc2c1 (stereo partly shown)", "pIC50": "5.52 to 6.00"}
{"compound": "CCCCOC(=O)[C@@H]1CCCN1P(=O)(Oc1ccccc1)C(F)(F)c1ccc2sc(C(=O)N[C@H]3CCC[C@H]4CC[C@@H](C(=O)N5CC(c6cccnc6)C5)N4C3=O)cc2c1 (stereo partly shown)", "pIC50": "< 5.52"}

Let us examine a further case.
Which pIC50 is listed for C[C@H](NP(=O)(Cc1ccc2ccc(C(=O)N[C@H]3CCCC[C@H]4CC[C@@H](C(=O)N5CC(c6ccccc6)CC56CC6)N4C3=O)cc2c1)Oc1ccccc1)C(=O)OCc1ccccc1 (stereo partly shown) ? < 5.52
